- Tested on: CASKI
- Test summary: Primary qHTS to identify gynecologic anti-cancer compounds using libraries of approved drugs and bioactive compounds (AID 1345084); also: % is scaled to controls: 0 for no effect and ±100 for the full control effect; nearly all actives have a fitted effect of over 55% in size
- Assay context: Gynecologic cancer cell panel viability, ATPlite luminescence, 48 h; series mostly up to 57.5 µM
Records with an inconclusive call do not appear. Calls of active or inactive are those of the source. Calls follow the shape of the dose curve; as a rule, active = well fitted cell-killing curve with a large enough effect; inconclusive = small, poorly fitted or top-dose-only effect, or effect the other way; inactive = flat fitted curve, though single readings scatter.
Quantity name: activity change, negative = cytotoxicity

Recorded activity change, negative = cytotoxicity, per entry:
[
  {
    "Compound": "OCc1ccccc1O[C@@H]1O[C@H](CO)[C@@H](O)[C@H](O)[C@H]1O",
    "activity change, negative = cytotoxicity": "inactive"
  },
  {
    "Compound": "CC1CCC23COC(=O)C2=CC(O)CC3C1(C)CCC1=CC(=O)OC1O (stereo not given)",
    "activity change, negative = cytotoxicity": "inactive"
  },
  {
    "Compound": "C[C@@H]1CC[C@]2(C(=O)O)CC[C@]3(C)C(=CCC4[C@]5(C)C(CC[C@]43C)C(C)(C)[C@@H](O)[C@H](O)[C@@H]5O)C2[C@]1(C)O (stereo not given in full)",
    "activity change, negative = cytotoxicity": "inactive"
  },
  {
    "Compound": "COc1ccc(C(=O)O[C@H]2CC(C)=CC[C@@]3(C)[C@@H](OC(C)=O)C[C@@](O)(C(C)C)[C@H]23)cc1",
    "activity change, negative = cytotoxicity": "inactive"
  },
  {
    "Compound": "CC1OC(OC2C(O)C(C(=O)O)OC(OC3CCC4(C)C(CCC5(C)C4C=CC4=C6CC(C)(C)CC(O)C6(C)CCC45C)C3(C)C)C2OC2OCC(O)C(O)C2O)C(O)C(O)C1O (stereo not given)",
    "activity change, negative = cytotoxicity": "17.4% [at 11.6 µM] (inactive)"
  }
]

Query: Answer with the recorded activity change, negative = cytotoxicity for the compound listed here: CCOc1ccc(-c2ccc(Cn3c(CC(C)(C)C(=O)O)c(SC(C)(C)C)c4cc(OCc5ccc(C)cn5)ccc43)cc2)cn1
Result: inactive

Query: Entry C[C@@H]1O[C@@H](O[C@H]2[C@H](OC(=O)C34CCC5(C)C(=CCC6C7(C)CC(O)C(O[C@@H]8O[C@H](C(=O)O)[C@@H](O)[C@H](O)[C@H]8O)C(C)(C(=O)O)C7CCC65C)C3CC(C)(C)CC4O)O[C@H](C)[C@@H](O)[C@@H]2O)[C@H](O)[C@@H](O[C@@H]2OC[C@](O)(CO)[C@H]2O[C@@H]2O[C@H](CO)[C@@H](O)[C@H](O)[C@H]2O)[C@H]1O (stereo not given in full) needs its activity change, negative = cytotoxicity filled in; supply it.
Result: 3.56% [at 6.55 µM] (inactive)

Query: Provide activity change, negative = cytotoxicity value for the following compound: O=C(c1ccc(NS(=O)(=O)c2cccc3cccnc23)cc1)N1CCN(CC2CC2)CC1
Result: inactive

Query: State its activity change, negative = cytotoxicity for this compound: c1ccc(Nc2nc3c(s2)CCCc2[nH]ncc2-3)nc1
Result: inactive

Query: Determine its reported activity change, negative = cytotoxicity: COc1cc(/C=C/C(=O)OC2CC(OC(C)=O)C(OC(C)=O)C3C2CCC2C(=O)OC(c4ccoc4)CC23C)ccc1O[C@@H]1O[C@H](CO)[C@@H](O)[C@H](O)[C@H]1O (stereo not given in full)
Result: inactive

Query: Please report the measured activity change, negative = cytotoxicity for COc1ccc(C(O[C@@H]2O[C@H](CO)[C@@H](O)[C@H](O)[C@H]2O)C(CO)Oc2ccc(/C=C/CO)cc2OC)cc1O (stereo not given in full)
Result: inactive

Query: Supply reported activity change, negative = cytotoxicity belonging to this compound: C=C1CCC2C(C)(C)C(O)CCC2(C)C1CCC(C)CCOC(=O)CCC(=O)O (stereo not given)
Result: inactive

Query: Identify activity change, negative = cytotoxicity associated with the compound CC1(C)CCCC2(C)C(CO)C3CCC2C31 (stereo not given)
Result: inactive

Query: Please report activity change, negative = cytotoxicity for the following compound: CC1=CC(=O)CC(C)(C)C1CCC(C)OC1OC(COC(=O)c2cc(O)c(O)c(O)c2)C(O)C(O)C1O (stereo not given)
Result: inactive

Query: Give the value of activity change, negative = cytotoxicity reported for the following: CC1CCC2C(C(=O)O)=CC3C(O)C(C)(C)CC123 (stereo not given)
Result: inactive

* * *

- System: Zika virus NS2B-NS3 protease (unlinked complex)
- Test summary: Primary screen GU Rhodamine qHTS for Zika virus inhibitors: Unlinked NS2B-NS3 protease assay (AID 1347159); also: % is scaled to controls: 0 for no effect and ±100 for the full control effect; nearly all actives have a fitted effect of over 60% in size
- Assay context: Recombinant ZIKV NS2B-NS3 protease, Rhodamine110 substrate fluorescence; series mostly up to 107 µM
Records with an inconclusive call do not appear. Calls of active or inactive are those of the source. Calls follow the shape of the dose curve; as a rule, active = well fitted inhibition curve with a large enough effect; inconclusive = small, poorly fitted or top-dose-only effect; inactive = no such curve, though single readings can be large or run the other way.
Quantity name: Potency

Here is how some compounds turned out for Potency.
[
  {
    "Compound": "CC1=CC(=O)OC(C)(CC(C)(O)C(=O)O)C1 (configuration not stated)",
    "Observed": "inactive"
  },
  {
    "Compound": "COc1cc(C2Oc3c(OC)cc(/C=C/C(=O)OC[C@H]4O[C@@H](OC(C)(C)C(=O)O)[C@H](O)[C@@H](O)[C@@H]4O)cc3C2CO)ccc1O (some centres not stated)",
    "Observed": "inactive"
  },
  {
    "Compound": "O=C(O)Cc1nn(Cc2nc3cc(C(F)(F)F)ccc3s2)c(=O)c2nccnc12",
    "Observed": "inactive"
  },
  {
    "Compound": "CC1=CC2(O)/C=C/C(C)(O)CC(O)/C=C/C(=O)OC23C(=O)NC(CC(C)C)C3C1C (configuration not stated)",
    "Observed": "inactive"
  },
  {
    "Compound": "CC(=O)NCCCCn1c2c(c3ccccc31)C(=O)NCC2",
    "Observed": "inactive"
  }
]

# evaluate next
Query: Given the compound CC1=C2C(=O)O[C@@H](c3ccoc3)[C@]2(C)CCC1 , write its reported Potency.
Result: inactive

* * *

- Tested on: CRL-7250
- Test summary: Cytotoxic Profiling of Annotated Libraries Using Quantitative High-Throughput Screening (AID 1296008); also: % is scaled to controls: 0 for no effect and ±100 for the full control effect; nearly all actives have a fitted effect of over 60% in size
- Assay context: Five cell lines viability, CellTiter-Glo ATP luminescence, 48-72 h; active compounds read low
Results filed as inconclusive are left out.
Quantity name: max response (%)
Numbers only; they are read as %.

[
  {
    "Molecule": "OCC1OC(Oc2cc(O)c3c(c2)OC(c2ccc(O)cc2)C(O)C3)C(O)C1O (stereo not given)",
    "Quantity name": "max response",
    "Unit": "%",
    "Observed": -1.28
  }
]

Query: Indicate the recorded max response value for this molecule: Nc1nc(CC(=O)Nc2ccc(CCNCC(O)c3ccccc3)cc2)cs1 (stereo not given)
Result: 2.98

* * *

- Test summary: P-glycoprotein substrates identified in KB-3-1 adenocarcinoma cell line, qHTS therapeutic library screen (AID 1346986); also: nearly all actives have a fitted effect of over 60% in size
- Assay context: KB-3-1 parental cells viability, CellTiter-Glo, 72 h; series mostly up to 44.5 µM
Records with an inconclusive call do not appear. Active and inactive are the calls of the source. The call rests on the fitted dose curve; in most records, active means well fitted inhibition curve with a large enough effect; inconclusive means small, poorly fitted or top-dose-only effect; inactive means no such curve, though single readings can be large or run the other way.

[
  {
    "Molecule": "CC1(C)CC[C@]2(C(=O)O)CC[C@]3(C)C(=CCC4[C@@]5(C)CC[C@H](O[C@@H]6O[C@H](C(=O)O)[C@@H](O)[C@H](O)[C@H]6O)C(C)(CO)C5CC[C@]43C)C2C1 (stereo partly drawn)",
    "outcome": "inactive"
  },
  {
    "Molecule": "CC(C#N)C(C)O[C@@H]1O[C@H](CO)[C@@H](O)[C@H](O)[C@H]1O (stereo partly drawn)",
    "outcome": "inactive"
  }
]

* * *

- Test system: HaCat
- Test summary: Cytotoxic Profiling of Annotated Libraries Using Quantitative High-Throughput Screening (AID 1296008); also: % is scaled to controls: 0 for no effect and ±100 for the full control effect; nearly all actives have a fitted effect of over 60% in size
- Assay context: Five cell lines viability, CellTiter-Glo ATP luminescence, 48-72 h; active compounds read low
Records with an inconclusive call do not appear.
Quantity name: max response (%)
Numbers only here, please. The scale is %.

Use the examples below as a reference point.
[
  {
    "Molecule": "COC1=CC(=O)O[C@@H](CCc2ccccc2)[C@@H]1O",
    "max response (%)": -13
  },
  {
    "Molecule": "C[C@H]1[C@H](C)CC[C@]2(C(=O)O)CC[C@]3(C(=O)O)C(=CCC4[C@@]5(C)CC[C@H](O[C@@H]6O[C@H](C)[C@@H](O)[C@H](O)[C@H]6O)C(C)(C)C5CC[C@]43C)[C@H]12 (some centres undefined)",
    "max response (%)": 2.99
  },
  {
    "Molecule": "CC[C@H](/C=C/[C@@H](C)[C@H]1CC[C@H]2[C@@H]3CC=C4C[C@@H](O)CC[C@]4(C)[C@H]3CC[C@]12C)C(C)C",
    "max response (%)": 0.322
  }
]

Query: Give a short answer stating reported max response for C=C(C(=O)OC)C1CCC2(C)C(O[C@@H]3O[C@H](CO)[C@@H](O)[C@H](O)[C@H]3O)CC(=O)C(C)C2C1O (some centres undefined) .
Result: -1.72
